Data origin: patent US20090130676A1

# target: T1, Cdk4 (Homo sapiens (Human), UniProt P11802 2-303)
# T1 construct: construct not described
# T1 sequence (P11802 2-303 limits assumed): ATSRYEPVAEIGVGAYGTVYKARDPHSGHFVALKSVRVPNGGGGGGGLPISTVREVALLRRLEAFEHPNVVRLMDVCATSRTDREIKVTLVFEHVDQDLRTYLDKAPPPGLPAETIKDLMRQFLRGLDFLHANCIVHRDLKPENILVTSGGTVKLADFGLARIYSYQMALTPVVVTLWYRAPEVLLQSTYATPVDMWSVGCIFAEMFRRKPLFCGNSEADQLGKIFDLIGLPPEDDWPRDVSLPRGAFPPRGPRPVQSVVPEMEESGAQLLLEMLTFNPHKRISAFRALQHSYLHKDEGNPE
# assay.method.text: yeast interaction trap mating assay, lacZ reporter on Xgal
test.readout: binding result

Please review the following examples before continuing.
binder	binding result
pep8 (designed binder, not shown: large carriers; small tags and cut ends, peptide loop embedded in the thioredoxin active-site loop between Cys33 and Cys36 (may form a disulfide), The purified His6 form is m43) MSDKIIHLTDDSFDTDVLKADGAILVDFWAEWCGPYSFVHHGFFNFRVSWREMLAGPCKMIAPILDEIADEYQGKLTVAKLNIDQNPGTAPKYGIRGIPTLLLFKNGEVAATKVGALSKGQLKEFLDANLA	no binding
pep10 (designed binder, not shown: small tags and cut ends, Peptide loop sits in the TrxA active-site loop; flanking Cys33 and Cys36 may form a disulfide, The purified His6 form is m44) MSDKIIHLTDDSFDTDVLKADGAILVDFWAEWCGPQVWSLWALGWRWLRRYGWNMGPCKMIAPILDEIADEYQGKLTVAKLNIDQNPGTAPKYGIRGIPTLLLFKNGEVAATKVGALSKGQLKEFLDANLA	no binding
pep2 (designed binder, not shown: small tags and cut ends, Peptide loop sits in the TrxA active-site loop; flanking Cys33 and Cys36 may form a disulfide, the purified His6 form is m40) MSDKIIHLTDDSFDTDVLKADGAILVDFWAEWCGPLVCKSYRLDWEAGALFRSLFGPCKMIAPILDEIADEYQGKLTVAKLNIDQNPGTAPKYGIRGIPTLLLFKNGEVAATKVGALSKGQLKEFLDANLA	no binding
pep5 (designed binder, not shown: large carriers; small tags and cut ends, peptide loop embedded in the thioredoxin active-site loop between Cys33 and Cys36 (may form a disulfide), the purified His6 form is m42) MSDKIIHLTDDSFDTDVLKADGAILVDFWAEWCGPSVRMRYGIDAFFDLGGLLHGGPCKMIAPILDEIADEYQGKLTVAKLNIDQNPGTAPKYGIRGIPTLLLFKNGEVAATKVGALSKGQLKEFLDANLA	no binding

Shifting focus to the binder that follows.
# get_value(readout='binding result', item= pep11 (designed binder, not shown: small tags and cut ends, Peptide loop sits in the TrxA active-site loop; flanking Cys33 and Cys36 may form a disulfide, The purified His6 form is m45) MSDKIIHLTDDSFDTDVLKADGAILVDFWAEWCGPWRRMELDAEIRWVKPISPLEGPCKMIAPILDEIADEYQGKLTVAKLNIDQNPGTAPKYGIRGIPTLLLFKNGEVAATKVGALSKGQLKEFLDANLA )
no binding
